- Organism: Bos taurus
- Experiment Summary: Displacement of [3H]colchicine from bovine brain tubulin at 5 uM
Mark True only when Activity stays strictly below 80%. Values equal to the cut-off are False.

Before answering, review these 3 worked examples.
COc1cc(C(=O)c2c(N)sc3ccccc23)cc(OC)c1OC True
COC(=O)N1CCc2c(sc(N)c2C(=O)c2cc(OC)c(OC)c(OC)c2)C1 False
COc1ccc(/C=C\c2cc(OC)c(OC)c(OC)c2)cc1O False

Continue with the next molecule.
// query For `COc1cc(C(=O)c2c(N)sc3cnccc23)cc(OC)c1OC` , is the recorded Activity below the cut-off of 80%?
// result True

Source listed as ChEMBL document CHEMBL1141689.
